Each item that follows carries a reported growth.
Tested on: SF-295 CNS
experiment: NCI-60 one-dose screen, 48 h (100 = growth as untreated, 0 = no growth, -100 = all killed)
recorded-conditions: 10 µM unless noted
This is part of a sample that, as a whole, favours compounds with a hit. Of some 83,000 tested, about 20% had one in any assay.
Provide the reading as a plain figure in %.

INSERT INTO results (compound, unit_of_measurement, observed_measurement) VALUES
  ('Clc1cccc(/C=N/Nc2nc(N/N=C/c3cccc(Cl)c3Cl)nc(N3CCCCC3)n2)c1Cl', '%', 92.7),
  ('CC1(C)CC[C@]2(CN)CC[C@]3(C)C(=CC[C@@H]4[C@@]5(C)CCCNC(C)(C)[C@@H]5CC[C@]43C)[C@H]2C1', '%', 104),
  ('Cn1ccnc1C(=O)/C=C/c1ccc(CNC(=O)c2ccc(F)cc2)cc1', '%', 49.1),
  ('CCOC(=O)c1c(Nc2ccccc2)nn2c(-c3cccs3)ccnc12', '%', 84.1),
  ('N=c1c2cc(-c3ccccc3)oc2ncn1/N=C/c1ccc(Cl)cc1', '%', 93.1);

Lab note: need growth for C=C1CC[C@@H]2[C@]3(C)COC(c4ccccc4)O[C@@H]3CC[C@@]2(C)[C@@H]1C/C=C1/C(=O)OC[C@H]1O (stereo partly drawn) on SF-295 CNS, anyone have it?
102

Requested read-out growth, target or system SF-295 CNS, entry CNC(=O)c1cc(Oc2ccc3nc(NC(=O)c4cccc(OC(F)(F)F)c4)sc3c2)ccn1
77.8

Quick check: growth on SF-295 CNS, item CC/C(=C/c1cc(OC)ccc1O)c1ccc2cc(OC)ccc2[o+]1 ?
52.2

Param readout = growth; param system = SF-295 CNS; param query = CCc1cccc2c3c(sc12)C(c1ccc(Cl)cc1)C(C#N)=C(/N=C/c1ccc(Cl)cc1)O3 (stereo not drawn) ; response: value
-22.7

Recorded growth for COc1c(N2CC3CCCNC3C2)c(F)cc2c(=O)c(C(=O)N/N=C/c3ccc4c(c3)OCO4)cn(C3CC3)c12 (stereo not drawn) with SF-295 CNS, please?
44.2

Given the entry CN(C)CCCOc1ccc2c(c1)CN(C(=O)c1cc(C(=O)N3Cc4cccc(F)c4C3)ccc1O)C2 , what growth was observed with SF-295 CNS?
100

Hi! What's the reported growth for N#Cc1cccc(CN2CCc3ncn(Cc4ccc(Cl)cc4)c(=O)c3C2)c1 on SF-295 CNS?
8.57

Give the reported growth for CC(C)(C)c1ccc(C(=O)Nc2sc3c(c2C(N)=O)CC/C(=N\O)C3)cc1 (system: SF-295 CNS).
16.8

What growth appears in the records for this compound with SF-295 CNS? COc1ccc2[nH]cc(/C=N/Nc3nc4ccccc4s3)c2c1
58.5

Recorded growth for COc1cc(-c2nc(-c3ccccc3)[nH]c2-c2ccnc(NCCCNS(=O)(=O)c3cccc(F)c3)n2)ccc1Cl with SF-295 CNS, please?
25

Lab note: need growth for CC(=O)c1cc(C(=O)N2c3ccccc3Sc3ccccc32)n2ccc3ccccc3c12 on SF-295 CNS, anyone have it?
18.8

Under SF-295 CNS: growth value of Nc1nc(-c2cccc([N+](=O)[O-])c2)c(N=Nc2ccc([N+](=O)[O-])cc2Cl)s1 ?
-18.4

What value of growth on SF-295 CNS does C#CCNC1CCC(c2csc(C#C)n2)=C1C (stereo not drawn) have?
-28.2

What value of growth on SF-295 CNS does CNC(=O)c1cc(Oc2ccc3nc(NC(=O)c4cc(N5CCOCC5)cc(C(F)(F)F)c4)sc3c2)ccn1 have?
44.6

Lab note: need growth with SF-295 CNS for entry O=C(CSc1nc2ccccc2c(=O)n1-c1ccccc1)Nc1cccc(C(=O)/C=C/c2ccccc2Cl)c1 , please look it up.
102

---

Tested on: OVCAR-5 ovarian
experiment: NCI-60 one-dose screen, 48 h
recorded-conditions: 10 µM unless noted
This is part of a sample that, as a whole, favours compounds with a hit. Of some 83,000 tested, about 20% had one in any assay. The source made the active and inactive calls. How the source made its calls: active means growth percent below 10; inactive means the rest.
Respond only with the outcome that fits, drawn from active, inactive

INSERT INTO results (compound, system_name, label_value) VALUES
  ('COc1cc(OC)c(S(N)(=O)=O)cc1C(=O)/C=C/c1ccc(Cl)cc1', 'OVCAR-5 ovarian', 'inactive'),
  ('O=C(Nc1ccc2c(ccn2Cc2ccccn2)c1)c1cnccn1', 'OVCAR-5 ovarian', 'inactive'),
  ('N#C/C(=C\c1ccc(-c2ccc(Cl)cc2Cl)o1)c1ccc(F)cc1', 'OVCAR-5 ovarian', 'inactive'),
  ('COc1ccc(NC(=O)CSc2nnc(-c3ccc4nc(-c5ccc(OC)c(OC)c5)[nH]c4c3)o2)cc1OC', 'OVCAR-5 ovarian', 'inactive'),
  ('CC/C(=C/c1c(O)cccc1OC)c1ccc2c(OC)cccc2[o+]1', 'OVCAR-5 ovarian', 'inactive');

// outcome(item) with item = Cc1ccc(-c2cc3nc(C(Cl)Cl)nc(-c4cccs4)n3n2)cc1
inactive

Write down the call the test reported for this compound. Item: Nc1nc(Nc2ccccc2SSc2ccccc2Nc2nc(N)nc(-c3cccc(Br)c3)n2)nc(-c2cccc(Br)c2)n1
inactive

// return assay outcome for CCN(CC)c1ccc2c(c1)Oc1nc(N)c(C#N)c(N)c1C2Sc1ccc(F)cc1 (centres undefined)
active

Outcome logged for COc1ccc2[nH]cc(/C=N/Nc3nc4ccccc4s3)c2c1 in this assay:
inactive

---

System: M14 melanoma
experiment: NCI-60 one-dose screen, 48 h (100 = growth as untreated, 0 = no growth, -100 = all killed)
recorded-conditions: 10 µM unless noted
The panel holds about 83,000 compounds, 20% with a hit somewhere; the sample as a whole holds those more often. Activity calls are given as the source filed them. How the source made its calls: active means growth percent below 10; inactive means the rest.
value-kind: growth

Examples with answers:
INSERT INTO results (compound, system_name, observed_measurement) VALUES
  ('Cc1ccc(S(=O)(=O)NCCNc2nc(Nc3ccc(N4CCN(C)CC4)cc3)nc3ccsc23)cc1', 'M14 melanoma', '106% (inactive)'),
  ('CCOC(=O)c1c(Nc2ccccc2)nn2c(-c3ccc(Cl)cc3)ccnc12', 'M14 melanoma', '96.5% (inactive)'),
  ('C/C(=N\O)[C@H]1C[C@]23CC[C@]4(C)[C@H](CC[C@@H]5[C@@]6(C)CC/C(=N/O)C(C)(C)[C@@H]6CC[C@]54C)[C@H]2[C@H](C)C1(C)OC3', 'M14 melanoma', '105% (inactive)'),
  ('O=c1[nH]c(Sc2sc3ccc(Cl)cc3c2CBr)nc(=S)[nH]1', 'M14 melanoma', '27.6% (inactive)'),
  ('CCO/C=N/C1=C(C#N)C(c2ccc(Cl)cc2)c2sc3c(C)cccc3c2O1 (stereo not given)', 'M14 melanoma', '1.8% (active)'),
  ('COc1cccc(N2CCN(c3ncnc4c3[nH]c3ccc(F)cc34)C[C@H]2C)c1', 'M14 melanoma', '41.7% (inactive)'),
  ('COc1ccc(OC)c(-c2nc(SCC(=O)c3ccc(Br)cc3)nc(Nc3ccc(S(N)(=O)=O)cc3)c2C#N)c1', 'M14 melanoma', '42.5% (inactive)'),
  ('CCO/C=N/C1=C(C#N)C(c2ccc(F)cc2)c2sc3c(C)cccc3c2O1 (stereo not given)', 'M14 melanoma', '3.68% (active)'),
  ('CN1CCN(Cc2ccc(NC(=O)c3cncc(C#Cc4cnn5cccnc45)c3)cc2C(F)(F)F)CC1', 'M14 melanoma', '-43.9% (active)'),
  ('O=C(CN1CCN(c2cc(=O)n(-c3ccccc3)c3ccccc23)CC1)Nc1nc(-c2ccccc2)cs1', 'M14 melanoma', '69.7% (inactive)');

Please find the next compound below.
Please give the measured growth for this compound: C[C@H]1c2[nH]c3ccccc3c2C[C@H]2C(=O)N(CCCCCCC(=O)NO)CC(=O)N21
91.4% (inactive)

---

growth listing for selected compounds.
System: BT-549 breast
experiment: NCI-60 one-dose screen, 48 h (100 = growth as untreated, 0 = no growth, -100 = all killed)
recorded-conditions: 10 µM unless noted
This is part of a sample that, as a whole, favours compounds with a hit. Of some 83,000 tested, about 20% had one in any assay.
Could you give me the number in %? Just the number is fine.

Here are 2 compounds together with their reported answers.
INSERT INTO results (item_smiles, observed_measurement) VALUES
  ('CC/C(=C/c1c(O)cccc1OC)c1ccc2c(OC)cccc2[o+]1', 98.5),
  ('Cn1cc(-c2nnc(N)nc2-c2c[nH]c3ccc(F)cc23)c2cc(F)ccc21', 71.2);

Which growth is listed for N#Cc1cnc2ccc(-c3cnc(N)nc3)cc2c1N1CCc2cc(F)c(Cl)cc21 ?
3.1

---

Test system: HCT-15 colon
experiment: NCI-60 one-dose screen, 48 h (100 = growth as untreated, 0 = no growth, -100 = all killed)
recorded-conditions: 10 µM unless noted
Compounds without any hit were thinned out: in the full panel of roughly 83,000, 20% have a hit.
# key: entry, value: growth
Expressed in %, but write only the number.

Examples with their reported growth follow.
INSERT INTO results (molecule, value_kind, unit_of_measurement, observed_measurement) VALUES
  ('Cc1ccc(-n2cc(/C=N/NC(=O)c3nc(N)n[nH]3)c(-c3ccc(S(C)(=O)=O)cc3)n2)cc1', 'growth', '%', 86.4),
  ('CC1(C)[C@@H](O)CC[C@]2(C)[C@H]3CC[C@@H]4[C@H]5[C@H](C(=O)/C=C\c6ccccn6)CC[C@]5(O)CC[C@@]4(C)[C@]3(C)CC[C@@H]12', 'growth', '%', 15),
  ('C#C[C@]1(O)CC[C@H]2[C@@H]3CC=C4c5sc(-c6ccc(C)cc6)nc5CC[C@]4(C)[C@H]3CC[C@@]21C', 'growth', '%', -2.81);

So what's the measured growth for this one? FC(F)(F)c1cc(Nc2cccc(Oc3ccc(NC4=NCCN4)nc3)c2)ccc1Cl
-71.4

Given the entry CCNC(=O)N1CCc2cc(OC)c(OCCc3ccc(OC)nc3)cc2C1c1ccc(OC)cc1C (stereo not drawn) , report its measured growth.
14

growth for Cc1cc(C)n(C(=O)c2sc(=S)n(-c3ccccc3)c2N=Nc2c(N)n[nH]c2N)n1 ?
108

Form field: reported growth of C#Cc1nc(C(C)=O)cs1
99.4

Which measured growth value corresponds to c1ccc(C(c2nc3ncncc3[nH]2)N2CSc3nc4ncncc4n3C2)cc1 (stereo not drawn) ?
80.4

Returns the measured growth for the input molecule. Input: NC(=O)c1c(NC(=O)c2ccc(F)cc2F)sc2c1CCC(=O)C2
11.8

growth lookup needed for COc1cc(-c2nc(SC(C)C)n(C(C)C)c(=O)c2C#N)ccc1OCc1ccccc1 , thanks.
73.8

Value lookup for growth; key = CC1(C)CC[C@]2(C(=O)N3CCOCC3)CC[C@]3(C)C(=CC[C@@H]4[C@@]5(C)C/C(=C/c6ccco6)C(=O)C(C)(C)[C@@H]5CC[C@]43C)[C@@H]2C1
81.5

# growth lookup, item CC(=O)c1ccc(Nc2nc(SCC(C)C)nc(-c3ccccc3)c2C#N)cc1
95.3

Entry C=CCn1c(SCC(=O)Nc2ccc(C(=O)/C=C/c3ccc(C)cc3)cc2)nnc1-c1c[nH]c2ccccc12 : reported growth = ?
71.5

Which value of growth has been reported for COc1ccc(C(=O)c2c(N)c(C#N)cn2-c2ccccc2OC)cc1 in the records?
26

Query (molecule): O=S(=O)(NCCNc1nccc(-n2cnc3ccccc32)n1)c1ccc(C(F)(F)F)cc1 ; field requested: growth
60.7

Would you mind telling me what growth value was observed for Cn1ccnc1C(=O)/C=C/c1ccc(NC(=O)c2c(F)c(F)c(F)c(F)c2F)cc1 ?
85.9

Origin of values: PubChem BioAssay (NCI)
